measured.target: HLA B*5101 (Homo sapiens, UniProt P01889, A329T/A93T/A95T/C349S/D138N/D201E/D98Y/E187L/E204Q/E69T/G107R/I218V/K202T/L105A/L119W/N104I/Q94N/R106L/R155S/R180L/S101N/S121T/S35A/S48A/V306I/V36M/Y195H/Y91F)
Format: binding
Attribute: Normalized average relative binding affinity(ARB)

Solved cases below.
{"sequence.record": "XXXXFXXXX [3064.0085]", "recorded.measurement": 0.29}
{"sequence.record": "XXXXXXXKX [3064.0149]", "recorded.measurement": 0.20}

Looking up XXXXPXXXX [3064.0093] , I see its Normalized average relative binding affinity(ARB) listed as 0.50

All values here come from paper PMC2248166.
